Tested on: MCF7 multi-cell spheroids with HUVEC/MSC, viability
run-description: Anticancer human tumor MCF7 cell line growth inhibition [IpAb];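 also: spheroids exposed to agents for seven days before readout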
applied-conditions: second compound 0.1 µM; first compound 0.316 µM; hits give low values
Quick reference: viability, T/C of the listed items.

Some solved cases for reference:
>>> experimental_value("CCCS(=O)(=O)Nc1ccc(F)c(C(=O)c2c[nH]c3ncc(-c4ccc(Cl)cc4)cc23)c1F + CCN1CCN(Cc2ccc(Nc3ncc(F)c(-c4cc(F)c5nc(C)n(C(C)C)c5c4)n3)nc2)CC1")
"100%"
>>> experimental_value("Cn1ncc(Cl)c1-c1cc(C(=O)NC(CN)Cc2cccc(F)c2)sc1Cl (stereo not drawn) + CC(C)NCC(C(=O)N1CCN(c2ncnc3c2C(C)CC3O)CC1)c1ccc(Cl)cc1")
"74.2%"

Shifting focus to the compound that follows.
Data point: C=CCn1c(=O)c2cnc(Nc3ccc(N4CCN(C)CC4)cc3)nc2n1-c1cccc(C(C)(C)O)n1 + CC(C)NCC(C(=O)N1CCN(c2ncnc3c2C(C)CC3O)CC1)c1ccc(Cl)cc1 ; viability, T/C = 67.4%
